# Test system: SEM cells
# test name: cell viability relative to DMSO control; higher = less cytotoxic
# measurement setup: HPLM + 10% dialyzed FBS; 48 h; 0.000781 µM
test readout: cell viability (%)
Note: unit % is implicit; provide only the numeric part.

Check out these entries, answers already filled in.
1) CCC1(C)CC(=O)NC1=O (centres undefined) = 107
2) C=CC(=O)Nc1cccc(Oc2nc(Nc3ccc(N4CCN(C)CC4)cc3)ncc2Cl)c1 = 94.3
3) CNC1CCC(N(Cc2cccc(-c3ccncc3)c2)C(=O)c2sc3ccccc3c2Cl)CC1 (centres undefined) = 86.2
4) CN(C)c1ccc(O)c2c1C[C@H]1C[C@H]3[C@H](N(C)C)C(O)=C(C(N)=O)C(=O)[C@@]3(O)C(O)=C1C2=O = 97.4
5) CC(=O)O[C@H]1C[C@@H]2CC[C@@H]3[C@H](CC[C@@]4(C)[C@H]3C[C@H]([N+]3(C)CCCCC3)[C@@H]4OC(C)=O)[C@@]2(C)C[C@@H]1[N+]1(C)CCCCC1 = 110

Qu. Complete the entry with cell viability for NC1(c2ccc(-c3nc4ccn5c(=O)[nH]nc5c4cc3-c3ccccc3)cc2)CCC1
Ans. 123

* * *

# cell viability annotations
# System: P12-Ichikawa
# test name: cell viability relative to DMSO control; higher = less cytotoxic
# measurement setup: HPLM + 10% dialyzed FBS; 48 h; 0.0632 µM
Note: unit % is implicit; provide only the numeric part.

Check out these entries, answers already filled in.
1) CC(C)(C)c1cc(NC(=O)Nc2ccc(-c3cn4c(n3)sc3cc(OCCN5CCOCC5)ccc34)cc2)no1 = 95.3
2) C[C@H](O)[C@H]1[C@@H]2[C@H](C)C(=C(\N2C1=O)C(O)=O)/S[C@@H]3CN[C@H](CN[S+](N)([O-])=O)C3 = 124
3) c1cncc(CN2CCC(n3ncc4c(N5CCOCC5)nc(-c5ccc6[nH]ccc6c5)nc43)CC2)c1 = 105
4) COc1c(C)cnc(Cn2cnc3c(Cl)nc(N)nc32)c1C = 118
5) CCCCCCCCCCCCCCCCCCCCCCO = 126
6) O=C(OC)[C@]12CC[C@@]3(C)[C@]4(C)CC[C@H]5[C@@](C)(C)C(=O)C(=C[C@]5(C)C4=CC(=O)[C@@H]3[C@@H]2C[C@](C)(C)CC1)C#N = 104
7) C=C(C)[C@@H]1CC[C@]2(C(=O)O)CC[C@]3(C)[C@H](CC[C@@H]4[C@@]5(C)CC[C@H](O)C(C)(C)[C@@H]5CC[C@]43C)[C@@H]12 = 116
8) C/C=C(/C)C(=O)O[C@H]1C(C)=C2[C@H]([C@@H]1OC(=O)CCCCCCC)[C@@](C)(OC(C)=O)C[C@H](OC(=O)CCC)[C@@]1(O)[C@H]2OC(=O)[C@@]1(C)O = 104

Qu. Complete the entry with cell viability for CN1[C@@H]2CC(OC(=O)[C@@H](CO)c3ccccc3)C[C@H]1[C@H]1O[C@H]12 (stereo partly specified)
Ans. 101

Qu. Complete the entry with cell viability for C\C1=C\C(=O)OC2=C1C=CC(=C2)O
Ans. 109

Qu. Complete the entry with cell viability for CC/C(=C(/c1ccc(O)cc1)c1ccc(OCCNC)cc1)c1ccccc1
Ans. 118

Qu. Complete the entry with cell viability for CC\1=C/C=C\C=[N]1[Pt](N)(Cl)Cl
Ans. 105

Qu. Complete the entry with cell viability for Cc1ccccc1C(C(=O)NC1CCCCC1)N(C(=O)Cn1ccnc1C)c1cccc(F)c1 (stereo unspecified)
Ans. 105

Qu. Complete the entry with cell viability for CCCc1nc(C(C)(C)O)c(C(=O)O)n1Cc1ccc(-c2ccccc2-c2nn[nH]n2)cc1
Ans. 115

Qu. Complete the entry with cell viability for COc1cccc2cc(-c3nc(C4CCC(C(=O)O)CC4)n4ncnc(N)c34)[nH]c12 (stereo unspecified)
Ans. 91.3

Qu. Complete the entry with cell viability for Oc1ccc2c3c1O[C@H]1c4[nH]c5c(c4C[C@@]4(O)[C@@H](C2)N(CC2CC2)CC[C@]314)C[C@@]1(O)[C@H]2Cc3ccc(O)c4c3[C@@]1(CCN2CC1CC1)[C@H]5O4
Ans. 120

* * *

# Test system: NOMO1
# test name: cell viability relative to DMSO control; higher = less cytotoxic
# measurement setup: RPMI 5 mM glucose + 10% dialyzed FBS; 48 h; 0.19 µM
# cell viability annotations
Note: unit % is implicit; provide only the numeric part.

Check out these entries, answers already filled in.
1) COC1=C(N2CCNC(C)C2)C(=CC3=C1N(\C=C(C(O)=O)/C3=O)C4CC4)F (configuration not stated) = 110
2) CC1CCC(C(=O)N(c2cc(C#CC(C)(C)C)sc2C(=O)O)C2CCC(O)CC2)CC1 (configuration not stated) = 86.3
3) CC\1=C/C=C\C=[N]1[Pt](N)(Cl)Cl = 111
4) ClC1=C(N\C2=N\CCN2)C3=NSN=C3C=C1 = 128

Qu. Complete the entry with cell viability for CC(C)NCC(O)COc1ccc(COCCOC(C)C)cc1 (configuration not stated)
Ans. 111

Qu. Complete the entry with cell viability for COc1cnc(N[S+](=O)([O-])c2ccc(N)cc2)nc1
Ans. 127

Qu. Complete the entry with cell viability for COc1nccc(-c2c(-c3ccc(F)cc3)ncn2C2CCNCC2)n1
Ans. 104

Qu. Complete the entry with cell viability for O=NN(CCCl)C(=O)NCCCl
Ans. 98.9

Qu. Complete the entry with cell viability for COC1=NC(=NC(=C1N\C2=N\CCN2)Cl)C
Ans. 94

Qu. Complete the entry with cell viability for Cc1ccccc1C(C(=O)NC1CCCCC1)N(C(=O)Cn1ccnc1C)c1cccc(F)c1 (configuration not stated)
Ans. 116

Qu. Complete the entry with cell viability for CN(c1ncccc1CNc1nc(Nc2ccc3c(c2)CC(=O)N3)ncc1C(F)(F)F)[S+](C)(=O)[O-]
Ans. 117

Qu. Complete the entry with cell viability for Cc1c(CCOc2ccc(C(=O)O)cc2)c2cc(Cl)ccc2n1C(c1ccccc1)c1ccccc1
Ans. 106

Qu. Complete the entry with cell viability for CCC[C@H](NC(=O)/C(C#N)=C/c1cccc(Br)n1)c1ccccc1
Ans. 117

* * *

# cell viability annotations
# System: P12-Ichikawa
# test name: cell viability relative to DMSO control; higher = less cytotoxic
# measurement setup: RPMI 5 mM glucose + 10% dialyzed FBS; 48 h; 0.00234 µM
Note: unit % is implicit; provide only the numeric part.

Check out these entries, answers already filled in.
1) CCC1(C)CC(=O)NC1=O (stereo not drawn) = 101
2) CN\1C(=O)/C(=C(\N=C1N2CCCC[S+]2([O-])=O)C(=O)NCC3=CC=C(F)C=C3)O = 116

Qu. Complete the entry with cell viability for CC(=O)Nc1ccc(OC[C@](C)(O)C(=O)Nc2ccc([N+](=O)[O-])c(C(F)(F)F)c2)cc1
Ans. 76.4

Qu. Complete the entry with cell viability for C[C@]12C[C@H](O)[C@H]3[C@@H](CC\C4=C\C(=O)\C=C/[C@]34C)[C@@H]1CC[C@]2(O)C(=O)CO
Ans. 118

Qu. Complete the entry with cell viability for Nc1ccccc1NC(=O)c1ccc(CNC(=O)OCc2cccnc2)cc1
Ans. 111

Qu. Complete the entry with cell viability for C[C@]12CC[C@@H]3c4ccc(OC(=O)N(CCCl)CCCl)cc4CC[C@H]3[C@@H]1CC[C@@H]2OP(=O)([O-])[O-].[Na+].[Na+]
Ans. 116

Qu. Complete the entry with cell viability for C[C@@H](NC1=CC=CC=C1C(O)=O)C/2=C/C(=C\N3C(=O)/C=C(\N=C23)N4CCOCC4)C
Ans. 85.3

Qu. Complete the entry with cell viability for CCC[C@H](NC(=O)/C(C#N)=C/c1cccc(Br)n1)c1ccccc1
Ans. 131

* * *

# Tested on: P12-Ichikawa
# test name: cell viability relative to DMSO control; higher = less cytotoxic
# measurement setup: RPMI 5 mM glucose + 10% dialyzed FBS; 48 h; 1.71 µM
test readout: cell viability (%)
Note: unit % is implicit; provide only the numeric part.

1. C/C=C(/C)C(=O)O[C@H]1C(C)=C2[C@H]([C@@H]1OC(=O)CCCCCCC)[C@@](C)(OC(C)=O)C[C@H](OC(=O)CCC)[C@@]1(O)[C@H]2OC(=O)[C@@]1(C)O = 8.27

Qu. Complete the entry with cell viability for C[C@]12CC[C@@H]3c4ccc(OC(=O)N(CCCl)CCCl)cc4CC[C@H]3[C@@H]1CC[C@@H]2OP(=O)([O-])[O-].[Na+].[Na+]
Ans. 111

Qu. Complete the entry with cell viability for CC(=O)Oc1ccccc1C(=O)O
Ans. 99.6

Qu. Complete the entry with cell viability for CC1(C)O[C@@H]2C[C@H]3[C@@H]4CCC5=CC(=O)C=C[C@]5(C)[C@@]4(F)[C@@H](O)C[C@]3(C)[C@]2(C(=O)CO)O1
Ans. 52.6
